Test system: HepG2 cells
Experiment: Cytotoxicity against HepG2 cells, AlamarBlue viability assay, 48 hours
Format: cell-based, human
Conditions: read-out: HepG2 CC50 (this study)
Can you tell me CC50 for the items I'm about to list?
Give the number; µM is assumed, so skip it.

Enquiry: Which CC50 reading was recorded for the compound CN1CCN(CCCOc2ncc(Nc3ncc(-c4ccc(C(F)(F)F)c(F)c4)nc3C(N)=O)cn2)CC1 ?
Return: 5.33

Enquiry: Which CC50 reading was recorded for the compound OCCc1ccc(Nc2nccc(-c3nnc4ccccn34)n2)cc1 ?
Return: 15.9

Enquiry: Which CC50 reading was recorded for the compound CC(=O)OCC1OC([S-])C(OC(C)=O)C(OC(C)=O)C1OC(C)=O.CCP(CC)CC.[Au+] (stereo not drawn) [MMV688978, Auranofin, reference compound] ?
Return: 0.5

FYI, the data here is from paper PMC6095626.
